Assay: NCI Yeast Anticancer Drug Screen. Data for the rad50 strain (AID 155);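 note: 0% = growth of vehicle-only cultures of the same strain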
Conditions: S. cerevisiae rad50 strain growth inhibition; at 50.0 µM; active compounds read high
Procedure: Growth inhibition of yeast strains with defined genetic alterations is measured as a screen for potential anti-cancer activity. Selected strains with alterations in DNA damage repair or cell cycle control were exposed to compounds and growth inhibition was measured relative to vehicle treated controls. The strain used in this assay is rad50
The panel holds about 79,000 compounds, 15% with a hit somewhere; the sample as a whole holds those more often.
The entries below come with measured growth inhibition values attached.
parameter: growth inhibition (%)

INSERT INTO results (compound, quantity_unit, data_value) VALUES
  ('[O-][n+]1onc2c1CCC(=N\O)/C2=N/Nc1ccccc1', '%', -1.55),
  ('O=C(O)/C=C/c1ccc(OCc2ccccc2)c(OCc2ccccc2)c1', '%', 0.7),
  ('O=C(CNc1ccccc1)c1ccc(O)c(C(=O)O)c1 (tested in a mixture with another compound)', '%', -8.5),
  ('CS(=O)(=O)C(c1nc2n(c1O)C(=N)N=N2)c1nc2n(c1O)C(=N)N=N2 (configuration not stated)', '%', -3.2),
  ('c1ccc(-n2cccc2)cc1', '%', 7.4),
  ('CCOC(=O)NC(C(F)(F)F)(C(F)(F)F)P(=O)(OC(C)C)OC(C)C', '%', -23),
  ('CCN(CC)CCN(C)C(=O)C(=O)c1ccccc1', '%', -20.1),
  ('C[C@]1(CO)CCC[C@@]2(C)C1CC[C@H]1CC3C[C@]12CC[C@]3(C)O (some centres not stated)', '%', 47.2),
  ('CC(=O)Nc1ccc(C(=O)CC(c2ccccc2)N2CCOCC2)cc1 (configuration not stated)', '%', 4.3),
  ('COC(=O)c1ccccc1NC(=NC1CCCCCC1)NS(=O)(=O)c1ccc(C)cc1', '%', 30.4),
  ('N#C/C(=C\c1c[nH]c2ccccc12)c1ccc([N+](=O)[O-])cc1', '%', -13.9),
  ('C=CCc1c(O)c2ccccc2[nH]c1=O', '%', -5.35),
  ('O=C([O][Sb]([O]C(=O)C(Br)Br)([c]1ccccc1)([c]1ccccc1)[c]1ccccc1)C(Br)Br', '%', 15.7),
  ('CCC(=O)CC(=O)C(=O)OC', '%', 6.25),
  ('COc1cc2c3c(c1)nc(C)n3C(=O)C(C)S2 (configuration not stated)', '%', -26.8),
  ('Nc1ccccc1SC1CC(=O)N(c2ccc(Oc3ccc(Cl)cc3)cc2)C1=O (configuration not stated)', '%', 25.6),
  ('CC(=O)NNc1nc(C)c(C(/C=C/c2ccc([N+](=O)[O-])cc2)=N/NC(N)=S)s1', '%', -8.6),
  ('ON=C(C(Cl)(Cl)Cl)C(Cl)(Cl)Cl', '%', -17.2),
  ('CC(=O)C/C(C)=N\NC(=O)c1ccc([N+](=O)[O-])cc1', '%', -6.15),
  ('Cn1c(=O)c2c(nc(C(=N)SCC(=O)O)n2C)n(C)c1=O', '%', 3.1),
  ('CC(C)CC(O)C(C)C (configuration not stated)', '%', -18.3),
  ('Cc1cc(N(CCC#N)CCC#N)ccc1/C(N=Nc1ccccc1)=N\NC(=O)c1cc(Cl)ccc1O', '%', 18.8),
  ('CCCCN(CCCC)c1ccc(S(=O)(=O)c2ccc(N(CCCC)CCCC)cc2)cc1', '%', 19.1),
  ('Cc1cccc(Cl)c1NC(=O)NCCCN1CCOCC1', '%', 2.8),
  ('c1ccc(SCCP(CCP(c2ccccc2)c2ccccc2)c2ccccc2)cc1 (configuration not stated)', '%', 34.9),
  ('S=c1nc[nH][nH]1', '%', 21.5),
  ('Cc1cc2nc(N3CCOCC3)n(C3OC(CO)C(O)C3O)c2cc1C (configuration not stated)', '%', -6.6);
